Hi there, I'd appreciate the recorded cell viability for every entry that follows.
Test system: Vero E6
Experiment: cell viability relative to DMSO; higher = less toxic
Conditions: 72 h; 1 nM
One number for each entry, in %.

{"Molecule": "Nc1nc(CC(=O)Nc2ccc(CCNC[C@H](O)c3ccccc3)cc2)cs1", "Observed Measurement": 99.1}
{"Molecule": "OC(c1ccc(-c2ccc(CN3CCN(Cc4ccncc4)CC3)cc2)c(F)c1)(C(F)(F)F)C(F)(F)F", "Observed Measurement": 103}
{"Molecule": "CCCOc1ccc(Br)cc1-c1cc(-c2ccc(Cl)cc2)[nH]c1-c1ccncc1", "Observed Measurement": 95.6}
{"Molecule": "COc1ccc2nc3cc(Cl)ccc3c(Nc3cc(CN4CCCC4)c(O)c(CN4CCCC4)c3)c2n1", "Observed Measurement": 104}
{"Molecule": "C=CCN1CC[C@]23CCCC[C@H]2[C@H]1Cc1ccc(O)cc13", "Observed Measurement": 101}

Each molecule below has a recorded value; state its cell viability.
1. CC(Cc1ccccc1)NCCC(c1ccccc1)c1ccccc1 (centres undefined)
2. CN1CCC(=C2c3ccccc3CCn3c(C=O)cnc32)CC1

Response:
103
89.4

Please go through the list and note cell viability for each molecule.
1. O=[N+]([O-])c1ccc(O)c([N+](=O)[O-])c1
2. COCCN1CCN(Cc2ccc(-c3n[nH]c4c3C(=O)c3c(NC(=O)NN5CCOCC5)cccc3-4)cc2)CC1

Response:
94
97.8

---

Tested on: Calu-3
Test: cell viability relative to DMSO; higher = less toxic
Conditions: 72 h; 1000 nM
Measured Quantity: cell viability

Sample answers from the record:
{"Compound": "COc1cc2c(Oc3ccc(NC(=O)C4(C(=O)Nc5ccc(F)cc5)CC4)cc3F)ccnc2cc1OCCCN1CCOCC1 [foretinib]", "cell viability": "84.7%"}
{"Compound": "CCOC(=O)C1=C[C@]2(CC)CCCN3CCc4c(n1c1ccccc41)[C@@H]32 [vinpocetine]", "cell viability": "105%"}

Consider the additional compound presented here.
Prompt: Any idea what cell viability was measured for Cc1ccc(-c2cn3c4c(sc3n2)CCCC4)cc1 [pifithrin-cyclic] ?
Response: 109%

---

Tested on: Vero E6
Experiment: cell viability relative to DMSO; higher = less toxic
Conditions: 72 h; 1000 nM
Please provide measured cell viability for the entries that follow.
One number for each entry, in %.

Some solved cases for reference:
{"Compound": "NS(=O)(=O)c1cc2c(cc1Cl)N=C(CSCc1ccccc1)NS2(=O)=O [benzthiazide]", "cell viability [%]": 101}
{"Compound": "CN1CCN(c2nc(C3=C(c4c[nH]c5ccccc45)C(=O)NC3=O)c3ccccc3n2)CC1 [sotrastaurin]", "cell viability [%]": 99.3}
{"Compound": "O=c1ccc2ccc(OCCCCN3CCN(c4cccc5sccc45)CC3)cc2[nH]1 [brexpiprazole]", "cell viability [%]": 94.5}

List cell viability for every entry below, keeping the order given.
1. COc1cc(-n2c(=S)[nH]c3ccccc3c2=O)c(Cl)cc1Cl [mdivi-1]
2. Cc1c(Cn2c(C)nc3c(C(=O)O)cc(N4CCOCC4)cc32)cccc1C(F)(F)F

Response:
[97.3, 84.4]

Give cell viability for all compounds that follow.
1. C[C@@H](c1nc(-c2ccc(C#N)cc2)cs1)[C@](O)(Cn1cncn1)c1cc(F)ccc1F [isavuconazole]
2. O=S(=O)(c1ccccc1)N(CC(F)(F)F)c1ccc(C(O)(C(F)(F)F)C(F)(F)F)cc1
3. CC1=C(CC(=O)O)c2cc(F)ccc2/C1=C\c1ccc(S(C)(=O)=O)cc1 [exisulind]
4. O=C1NCCc2[nH]c(-c3ccncc3)cc21

Response:
1. 98.6
2. 101
3. 110
4. 85.7
